Test system: RAW-Dual (murine macrophage reporter line)
Assay Remarks: viability score (confluency relative to resting cells, overnight) (fraction); higher = more viable, active = viable (0.7 or more)
Measurement Context: modulator concentration 10 µM
Readout Label: viability score
Lab note: jot the number down without any unit.

Q. Note viability score for the compound shown: Cc1cc(C)c(NC(=O)c2ccc(Oc3nccs3)cc2)c(C)c1
A. 1.01

Q. Note viability score for the compound shown: COc1ccc(S(=O)(=O)NCc2ccnc(-c3ccncc3)c2)cc1Cl
A. 0.999

Q. Note viability score for the compound shown: Cc1ccc(-c2cc(C(F)(F)F)n3nc(C(=O)NCCCN4CCOCC4)cc3n2)cc1
A. 1.01

Q. Note viability score for the compound shown: CS(=O)(=O)N1C2CCC1CC(NC(=O)NC1CCCC1)C2 (stereo unspecified)
A. 1.01

Q. Note viability score for the compound shown: c1ccc(CSc2nnc(-c3ccncc3)o2)cc1
A. 0.988

Q. Note viability score for the compound shown: CCOC(=O)C1=C(C)NC(C)=C(C(=O)OCC)C1c1ccc(Cl)cc1
A. 0.187

Q. Note viability score for the compound shown: CC(O)(P(=O)(O)O)P(=O)(O)O
A. 0.98

Q. Note viability score for the compound shown: Cc1cnc(NC(=O)C2=C(O)c3ccccc3S(=O)(=O)N2C)s1
A. 1.01

Q. Note viability score for the compound shown: O=C(Nc1ccc(NS(=O)(=O)c2ccc(Cl)cc2)cc1)c1ccccc1
A. 1.02

Q. Note viability score for the compound shown: Oc1c2c(nc3cc(-c4ccc(Cl)cc4)nn13)CCS2
A. 0.998

Q. Note viability score for the compound shown: Ic1ccc(OCCCOc2ncnc3ccccc23)cc1
A. 1.02

Q. Note viability score for the compound shown: Cl.Cl.NC1=NN(c2ccc(N)cc2)CC1
A. 1

Q. Note viability score for the compound shown: CCOC(=O)c1c(C)n(-c2ccccc2)c2ccc(NS(=O)(=O)c3ccccc3)cc12
A. 0.808

Q. Note viability score for the compound shown: COc1ccc2c(c1)c(CC(=O)O)c(C)n2C(=O)c1ccc(Cl)cc1
A. 1

Q. Note viability score for the compound shown: Ic1cccc(Cn2nnc(-c3ccccc3)n2)c1
A. 1.01

Q. Note viability score for the compound shown: COc1cccc(C=NNc2nnc(C)c(=O)[nH]2)c1OC
A. 1.01

Q. Note viability score for the compound shown: COC(=O)c1cc(NC(=O)c2cc(OC)c(OC)cc2[N+](=O)[O-])cc(C(=O)OC)c1
A. 1.01

Q. Note viability score for the compound shown: CCC1(CC)Cc2ccccc2C(CC(=O)N2CCOCC2)=N1.O=S(=O)(O)O
A. 0.829

Q. Note viability score for the compound shown: Cc1c(OCC(F)(F)F)ccnc1CS(=O)c1nc2ccccc2[nH]1 (stereo unspecified)
A. 0.984

Q. Note viability score for the compound shown: O=C1c2ccccc2C(=O)C1c1ccccc1
A. 0.996

Q. Note viability score for the compound shown: Cc1cc(C(=O)N2CCC(Oc3cccc4cccnc34)CC2)c(C)o1
A. 1.01

Q. Note viability score for the compound shown: N#Cc1ccc(C(=O)Nc2nc(-c3cccs3)c(C(=O)C(F)(F)F)s2)cc1
A. 1.03

Q. Note viability score for the compound shown: O=C(NCCn1nc(-c2ccccn2)c2c1CCCC2)c1c(F)cccc1Cl
A. 1

Q. Note viability score for the compound shown: COC12C(COC(N)=O)C3=C(C(=O)C(C)=C(N)C3=O)N1CC1NC12 (stereo unspecified)
A. 0.969

Q. Note viability score for the compound shown: CCCCN(Cc1ccccc1)C(=O)C1CCN(Cc2c(F)cccc2Cl)CC1
A. 0.617

Q. Note viability score for the compound shown: COc1ccc2ccccc2c1C=C1SC(=S)N(CC(=O)O)C1=O
A. 1.04

Q. Note viability score for the compound shown: CCc1c2c(nc3ccc(OC(=O)N4CCC(N5CCCCC5)CC4)cc13)-c1cc3c(c(=O)n1C2)COC(=O)[C@]3(O)CC.Cl.O.O.O
A. 0.975

Q. Note viability score for the compound shown: O=C(CSC1CCCCC1)Nc1cc(C(F)(F)F)ccc1Cl
A. 1.01

Q. Note viability score for the compound shown: COc1ccc(-c2nc3cc(C4=NNC(=O)CC4C)ccc3[nH]2)cc1 (stereo unspecified)
A. 0.775

Q. Note viability score for the compound shown: O=S(=O)(Nc1ccnc2ccccc12)c1ccccc1
A. 1.03

Q. Note viability score for the compound shown: CCOC(=O)C1=C(C)NC(C)=C(C(=O)OC)C1c1ccccc1 (stereo unspecified)
A. 0.946
